test system: B. divergens; test: Effect of protease inhibitors on B. divergens growth in culture (parasitemia by YOYO-1 flow cytometry, T72); assay type: cell-based; conditions: 50 μM, T72
Quick list: Growth T72 50 μM (inhibition) per entry.
measureName: Growth T72 50 μM (inhibition)

• O=S(=O)(F)Cc1ccccc1 [PMSF, phenylmethylsulfonyl fluoride] = 45.0 ± 5.2%
• Cc1ccc(S(=O)(=O)N[C@@H](CCCCN)C(=O)CCl)cc1 = 92.1 ± 3.0%
• O=c1oc(Cl)c(Cl)c2ccccc12 = 70.7 ± 1.4%
• NCCc1ccc(S(=O)(=O)F)cc1 [ABSF, 4-(2-aminoethyl)benzenesulfonyl fluoride] = 8.8 ± 7.4%
